# Format: in vivo, human
# measurement context: both, human, plasma, oral, Cmax, Cohort 2, dolutegravir 50 mg once daily + telaprevir 750 mg every 8 h, Period 2 (n = 15); geometric mean (95% CI)
observed property: Cmax (ng/mL)
Number in ng/mL, nothing else.

[in] Please indicate Cmax recorded for C[C@@H]1CCO[C@H]2Cn3cc(C(=O)NCc4ccc(F)cc4F)c(=O)c(O)c3C(=O)N12
[out] 5810
